Tested on: PC-3 prostate
Method Notes: NCI-60 one-dose screen, 48 h (100 = growth as untreated, 0 = no growth, -100 = all killed)
Measurement Parameters: 10 µM unless noted
This is part of a sample that, as a whole, favours compounds with a hit. Of some 83,000 tested, about 20% had one in any assay.
Assign labels as follows, please: y for growth below 50%; n for growth equal to or exceeding 50%.

Determine if "O=c1oc2ccc(F)cc2c(=O)n1-c1ccc(I)cc1F" shows growth strictly lower than 50%. y

Determine if COc1ccc(C2c3ccc4ccccc4c3Oc3ncn(CCCn4ccnc4)c(=N)c32)cc1OC (stereo not drawn) shows growth strictly lower than 50%. n

Determine if "Cc1ccc2cccc(Oc3ccc(Nc4ncnc5onc(-c6ccccc6)c45)cc3)c2n1" shows growth strictly lower than 50%. n

Determine if "Cc1ccc(C(=O)c2oc3ccc4c(C)cc(=O)oc4c3c2C)cc1" shows growth strictly lower than 50%. y

Determine if "O=C(Cn1cc(COc2ncnc3c2cnn3-c2ccccc2)nn1)Nc1ccccn1" shows growth strictly lower than 50%. n

Determine if "Cc1cc2c(c(C)c1Cl)C(=O)/C(=C/c1ccco1)O2" shows growth strictly lower than 50%. n

Determine if "O=C(/C=C/c1ccc(Cl)cc1)c1ccc(Nc2nc(NCCO)nc(N3CCOCC3)n2)cc1" shows growth strictly lower than 50%. n

Determine if "O=C(N=Nc1c(O)[nH]c2ccccc12)c1oc2ccccc2c1CN1CCN(c2ccccc2)CC1" shows growth strictly lower than 50%. y

---

System: PC-3 prostate
Method Notes: NCI-60 one-dose screen, 48 h (100 = growth as untreated, 0 = no growth, -100 = all killed)
Measurement Parameters: 10 µM unless noted
This is part of a sample that, as a whole, favours compounds with a hit. Of some 83,000 tested, about 20% had one in any assay.
Hi, to clarify the labels: 1.0 covers growth from 90% upward, 0.0 covers anything below 90%.

Please tell me: is the compound O=S(=O)(Nc1ncccn1)c1ccc(NC2Nc3nc4ccccc4nc3S2)cc1 (stereo not given) at or over 90% in terms of growth? 1.0

Please tell me: is the compound "COc1ccc(/C=C/C(=O)c2ccc3cc(OC)c(OC)cc3c2)cc1OC" at or over 90% in terms of growth? 0.0

Please tell me: is the compound "O=C(Nc1ccc(N2CCNCC2)cn1)c1[nH]ncc1Nc1ncnc2sccc12" at or over 90% in terms of growth? 0.0

Please tell me: is the compound CCOC(=O)C1=C(C)N=c2s/c(=C\c3cc(Cl)ccc3O)c(=O)n2C1c1ccc(OC)cc1 (stereo not given) at or over 90% in terms of growth? 0.0

---

System: EKVX NSCLC
Method Notes: NCI-60 one-dose screen, 48 h (100 = growth as untreated, 0 = no growth, -100 = all killed)
Measurement Parameters: 10 µM unless noted
Compounds without any hit were thinned out: in the full panel of roughly 83,000, 20% have a hit. Active and inactive are the calls of the source. How the source made its calls: active means growth percent below 10; inactive means the rest.
Readout Type: growth

Fill in the blank: the reported growth of "Nc1nc2c(ncn2[C@@H]2O[C@H](CS)[C@@H](O)[C@H]2O)c(=O)[nH]1" is ____. 95.8% (inactive)

Fill in the blank: the reported growth of "CCOC(=O)c1sc(-c2ccc(OS(=O)(=O)c3cccs3)c(C=O)c2)nc1C" is ____. 33.6% (inactive)

Fill in the blank: the reported growth of COc1cc(C2C(C#N)=C(N)OC3=C2C(=O)c2ccccc2C3=O)cc(OC)c1OC (centres undefined) is ____. 52.4% (inactive)

Fill in the blank: the reported growth of "CC(=O)c1ccc(Nc2nc(NCCO)nc(Nc3ccc(Cl)cc3)n2)cc1" is ____. 80.2% (inactive)

Fill in the blank: the reported growth of "CCCC(=O)CC(C)=O.CCCC(=O)CC(C)=O.[Cu]" is ____. 106% (inactive)

Fill in the blank: the reported growth of "CC(C)C[C@H](C(=O)N[C@H](C(N)=O)C(C)C)N1CC=CCN(OCc2ccccc2)S1(=O)=O" is ____. 114% [2.5 µM] (inactive)

Fill in the blank: the reported growth of "O=C(/C=C/c1ccc(Cl)cc1)c1ccc(Nc2nc(NCCO)nc(N3CCOCC3)n2)cc1" is ____. 94% (inactive)

Fill in the blank: the reported growth of "O=C1/C(=C/c2ccc(O)cc2)COc2ccc(O)c(O)c21" is ____. 71.5% (inactive)

Fill in the blank: the reported growth of "COc1cc(/C=C/C(=O)c2ccc(Cl)cc2)cc(CN2CCCCC2)c1O" is ____. 89.5% (inactive)

Fill in the blank: the reported growth of "Nc1nc(-c2cnccn2)nn1-c1nc2ccccc2s1" is ____. 94.6% (inactive)

Fill in the blank: the reported growth of COc1cc(C2CC(c3ccc(Nc4nc(NCCO)nc(N5CCOCC5)n4)cc3)=NN2c2cc(Cl)cc(Cl)c2)cc(OC)c1OC (centres undefined) is ____. 55.5% (inactive)

Fill in the blank: the reported growth of Cn1c2c(c(=O)[nH]c1=O)NC1=C(C(=O)c3ccccc31)C1(C=C(O)c3ccccc31)N2 (centres undefined) is ____. 95.7% (inactive)

Fill in the blank: the reported growth of CCN1C(=O)N(c2ccccc2)C2Nn3c(s/c(=C4\C(=O)N(C(C)C)c5ccccc54)c3=O)=NC21 (centres undefined) is ____. 97.8% (inactive)

Fill in the blank: the reported growth of "COc1ccc(OC)c(NC(=O)/C(C#N)=C/c2ccco2)c1" is ____. 94% (inactive)

Fill in the blank: the reported growth of "COc1ccc2oc(=O)cc(Cn3cc(Cn4cnc5c4c(=O)n(C)c(=O)n5C)nn3)c2c1" is ____. 103% (inactive)

Fill in the blank: the reported growth of "Nc1ccccc1-c1ccc(-c2ccc(Cl)cc2)c2c1[nH]c1ccccc12" is ____. 70.6% (inactive)

Fill in the blank: the reported growth of COC(=O)[C@H](NC(=O)C1(C)CCC[C@]2(C)[C@H]3C[C@H]4C(C(C)C)=C[C@]3(CC[C@@H]12)[C@@H]1C(=O)CCC(=O)[C@@H]14)C(C)C (some centres undefined) is ____. 94.9% (inactive)

Fill in the blank: the reported growth of "Cc1sc2ncn(CC(=O)Nc3ccc(S(N)(=O)=O)cc3)c(=O)c2c1C" is ____. 95.8% (inactive)

Fill in the blank: the reported growth of "COc1ccc(/C=C/C(=O)c2c(C)nc3ccccc3c2/C=C/c2ccccc2)c(OC)c1" is ____. 76.9% (inactive)
